Test system: CCRIS mutagenicity, Ames/micronucleus/aberration tests
Protocol: CCRIS mutagenicity studies
Cond: Test System: AMES SALMONELLA TYPHIMURIUM; Strain/Indicator: TA100; Metabolic Activation: RAT, LIVER, S-9, AROCLOR 1254; Method: STANDARD PLATE
Active and inactive are the calls of the source. The rule behind the calls is not given here.
Outcomes: 1 for active, 0 for inactive

>  <Compound>
CCCCCON=O

>  <Label Value>
0

$$$$
>  <Compound>
ClCc1ccccn1

>  <Label Value>
1

$$$$
>  <Compound>
CN(C)CCCN1c2ccccc2CCc2ccccc21

>  <Label Value>
0

$$$$
>  <Compound>
O[C@@H]1C=Cc2c(ccc3c2ccc2ccccc23)[C@H]1O

>  <Label Value>
1

$$$$
>  <Compound>
CC(C)N=C=NC(C)C

>  <Label Value>
0

$$$$
>  <Compound>
COc1ccc([C@H]2O[C@H]2C(=O)c2ccccc2)cc1

>  <Label Value>
1

$$$$
>  <Compound>
O=c1c(O)c(C2=CC(O)(CCO)C(O)(CCO)C=C2)oc2c1C(O)=CC(O)(CCO)C2 (stereo unspecified)

>  <Label Value>
0

$$$$
>  <Compound>
CCC/C=N/O

>  <Label Value>
0

$$$$
>  <Compound>
CN(CCO)CCO

>  <Label Value>
0

$$$$
>  <Compound>
Nc1cc(Cl)c(Cl)c(Cl)c1

>  <Label Value>
0

$$$$
>  <Compound>
COCC(=O)O

>  <Label Value>
0

$$$$

====

System: CCRIS mutagenicity, Ames/micronucleus/aberration tests
Protocol: CCRIS mutagenicity studies
Cond: Test System: AMES SALMONELLA TYPHIMURIUM; Strain/Indicator: TA98; Metabolic Activation: RAT, LIVER, S-9, AROCLOR 1254; Method: STANDARD PLATE
Activity calls are given as the source filed them. No rule for the calls is given here.
Labels: active, inactive

>  <Molecule>
C[C@]12CC[C@@H]3c4ccc(O)cc4CC[C@H]3[C@@]13CC[C@]2(O)[C@H](O)C3

>  <Label Value>
inactive

$$$$
>  <Molecule>
O=C1c2c(O)ccc3c2[C@H](c2ccc(O)c4c2[C@H]3[C@H]2O[C@H]2C4=O)[C@H]2O[C@@H]12

>  <Label Value>
active

$$$$
>  <Molecule>
O=C1CC(c2ccc(O)cc2)Oc2cc(O)cc(O)c21 (stereo not drawn)

>  <Label Value>
inactive

$$$$
>  <Molecule>
Cl/C=C(\Cl)c1c(Cl)c(Cl)c(Cl)c(Cl)c1Cl

>  <Label Value>
inactive

$$$$
>  <Molecule>
CC[C@@]1(O)C[C@H](O[C@H]2C[C@H](N(C)C)[C@H](O[C@H]3C[C@H](O)[C@H](O[C@H]4CCC(=O)[C@H](C)O4)[C@H](C)O3)[C@H](C)O2)c2c(cc3c(c2O)C(=O)c2c(O)cccc2C3=O)[C@H]1C(=O)OC

>  <Label Value>
inactive

$$$$
>  <Molecule>
CC(=O)Nc1ccc2ccc3c(O)ccc4ccc1c2c43

>  <Label Value>
active

$$$$
>  <Molecule>
Clc1ccc2cc3ccccc3cc2c1

>  <Label Value>
active

$$$$
>  <Molecule>
CCN(CC)CC(=O)Nc1c(C(=O)c2ccccc2F)c(C)nn1C

>  <Label Value>
inactive

$$$$

====

System: CCRIS mutagenicity, Ames/micronucleus/aberration tests
Protocol: CCRIS mutagenicity studies
Cond: Test System: AMES SALMONELLA TYPHIMURIUM; Strain/Indicator: TA98; Metabolic Activation: HAMSTER, LIVER, S-9, AROCLOR 1254; Method: STANDARD PLATE
The source made the active and inactive calls. How the calls were made is not given here.
Labels: active, inactive

>  <Molecule>
C=Cc1ccc(O)c(OC)c1

>  <Label Value>
inactive

$$$$
>  <Molecule>
C[C@]1(Cn2ccnn2)[C@H](C(=O)O)N2C(=O)C[C@H]2S1(=O)=O

>  <Label Value>
inactive

$$$$
>  <Molecule>
c1ccc2c(c1)CCCC2

>  <Label Value>
inactive

$$$$
>  <Molecule>
COc1cc(CNC(=O)CCCCCCC(C)C)ccc1O

>  <Label Value>
inactive

$$$$
>  <Molecule>
CC(C)N=C=NC(C)C

>  <Label Value>
inactive

$$$$
>  <Molecule>
O=C/C=C/C=C\c1ccc([N+](=O)[O-])cc1

>  <Label Value>
active

$$$$
>  <Molecule>
CCCCCON=O

>  <Label Value>
inactive

$$$$
>  <Molecule>
O=C(O)CCc1ccccc1

>  <Label Value>
inactive

$$$$
>  <Molecule>
Cc1ccc2nc(-c3ccc(N)cc3)sc2c1

>  <Label Value>
active

$$$$
>  <Molecule>
CC(Cc1ccc(O)c(O)c1)C(C)Cc1ccc(O)c(O)c1 (stereo not drawn)

>  <Label Value>
inactive

$$$$
>  <Molecule>
C=Cc1ccc(N)cc1

>  <Label Value>
active

$$$$
>  <Molecule>
[Cl][Fe]([Cl])[Cl]

>  <Label Value>
inactive

$$$$
>  <Molecule>
CC(=O)Nc1ccc(N=Nc2cc(C)ccc2O)cc1

>  <Label Value>
active

$$$$
>  <Molecule>
CN1C[C@H](C(=O)N[C@]2(C)O[C@@]3(O)[C@@H]4CCCN4C(=O)[C@H](Cc4ccccc4)N3C2=O)C=C2c3cccc4[nH]cc(c34)C[C@H]21

>  <Label Value>
inactive

$$$$
>  <Molecule>
O=[N+]([O-])c1ccc2[nH]ncc2c1

>  <Label Value>
active

$$$$
>  <Molecule>
CC1=Nc2ccccc2C1(C)C

>  <Label Value>
inactive

$$$$
>  <Molecule>
CC(=O)OC(C)=O

>  <Label Value>
inactive

$$$$
>  <Molecule>
CSC(C)(C)/C=N/O

>  <Label Value>
inactive

$$$$

Origin of measurements: PubChem BioAssay AID1259407
